# measurement_notes: ATG_RORE_CIS: Attagene CIS-FACTORIAL HepG2 Assay for human RAR-related Orphan Receptor Element (RORE) (AID 2282959)
# measurement_conditions: HepG2 Attagene cis-factorial RORE reporter, mRNA; actives raise or lower the signal
Active and inactive are the calls of the source. How the source made its calls: active means hit-call score of the fitted dose curve at least 0.9, where 1 is the maximum; inactive means score below 0.9.
Response enum: active, inactive

Prompt line: Outcome? C=C(C)c1cccc(C(C)(C)N=C=O)c1
Response line: inactive

Prompt line: Identify the outcome logged in this assay for the molecule shown: CC(CC=O)CCCC(C)(C)O (stereo not given)
Response line: inactive

Prompt line: Which outcome did this test record for the molecule CC1=NN(c2cc(S(=O)(=O)O)ccc2Cl)C(=O)C1N=Nc1ccccc1 (stereo not given) ?
Response line: inactive

Prompt line: Please share the test call associated with CCC(C)OC(=O)c1ccc(O)cc1 (stereo not given) .
Response line: inactive

Prompt line: Hey, what did the test say about Cc1cccc(OCCOc2cccc(C)c2)c1 ?
Response line: inactive

Prompt line: Which result was noted for this molecule in the test: Cc1ccc(C(C)(C)C)cc1
Response line: inactive

Prompt line: What did the test return for c1cc(N(CC2CO2)CC2CO2)ccc1OCC1CO1 (stereo not given) ?
Response line: active

Prompt line: Just curious, what result did CC=CC(=O)N(CC)c1ccccc1C get here?
Response line: inactive

Prompt line: Could you check what this test reported for CN(C)c1ccc(C(=N)c2ccc(N(C)C)cc2)cc1 ?
Response line: active

Prompt line: Recorded test call requested for COc1cc(C)ccc1C(C)C
Response line: inactive

Prompt line: Which outcome was assigned to CCN(CC)c1ccc(C(=O)c2ccccc2C(=O)O)c(O)c1 in this test?
Response line: inactive

Prompt line: Dear colleague, could you share the recorded outcome for C=C(C)C(=O)OCCO when you have a moment?
Response line: inactive

Prompt line: Hi, sorry to bother you, what did the test record for CCCCCCCCCCCCCCCC[N+](C)(C)CC ?
Response line: active

Prompt line: Test call, this molecule: Cc1cc(C)c(C(=O)O)c(C)c1
Response line: inactive

Prompt line: Each molecule tested received a call. Report the one for CCN(CCO)c1cccc(C)c1 .
Response line: inactive

Prompt line: Please indicate how the test categorized O=S(=O)(O)CC(O)CCl (stereo not given) .
Response line: inactive

Prompt line: For c1ccc(CCCc2ccncc2)cc1 , what call appears in the results of this test?
Response line: inactive

Prompt line: What classification did C=CC(C)(C)C end up with in this test?
Response line: inactive

Prompt line: What did this assay record as the result for CC(=O)Oc1ccc(C)cc1 ?
Response line: inactive

Prompt line: Dear all, I need the recorded test outcome for CC(=O)OCc1ccco1 , thank you.
Response line: inactive

* * *

# test_system: Aryl hydrocarbon receptor (Homo sapiens)
# measurement_notes: ATG_Ahr_CIS: Attagene CIS-FACTORIAL HepG2 Assay for human Aryl Hydrocarbon Receptor (Ahr) (AID 2282930)
# measurement_conditions: HepG2 AhR cis-factorial reporter transcription; actives raise or lower the signal
Active and inactive are the calls of the source. Rule for the calls: active = hit-call score of the fitted dose curve at least 0.9, where 1 is the maximum; inactive = score below 0.9.
Mark one answer only. Choices: t = active, f = inactive

Prompt line: Tell me the assay call for CC(C)=CCC/C(C)=C\C#N please.
Response line: f

Prompt line: What was the test verdict on c1c[nH]cn1 ?
Response line: f

Prompt line: Could you check what this test reported for C1CN(SSN2CCOCC2)CCO1 ?
Response line: f

Prompt line: Assay result, entry CCCCCCCCCCOC(C)=O — outcome?
Response line: f

Prompt line: Hello, I am checking results. What call was entered for CC(=O)OC(C)C ?
Response line: f

Prompt line: Check the results log: what was the call for CC(C)(C)c1ccc(OC(=O)c2ccccc2O)cc1 ?
Response line: f

Prompt line: Please state the recorded outcome for this compound: CC(C)(C)C(=O)CCc1ccc(Cl)cc1
Response line: f

Prompt line: Hey, what did the test say about C(=CC=Nc1ccccc1)C=CNc1ccccc1 ?
Response line: t

Prompt line: Please state the recorded outcome for this compound: Cc1cc(C)c(C)cc1C
Response line: f

Prompt line: Given Cc1ccc(C(C)(C)C)cc1 , state the outcome it received in this test.
Response line: f

Prompt line: Name the outcome recorded for CCCCOCCOC(=O)COc1nc(Cl)c(Cl)cc1Cl in the assay.
Response line: f

Prompt line: Short answer needed: outcome of this test for Cc1ccc([N+](=O)[O-])cc1S(=O)(=O)O ?
Response line: f

Prompt line: Query: recorded result category for CCc1nccnc1C in this test
Response line: f

Prompt line: Dear colleague, could you share the recorded outcome for c1cc(N(CC2CO2)CC2CO2)ccc1OCC1CO1 (stereo not drawn) when you have a moment?
Response line: f

Prompt line: Hi, do you know how CCc1ccc2c(c1)C(=O)c1ccccc1C2=O came out in this test?
Response line: t

Prompt line: Record lookup: outcome of this test for CCOC(F)(F)C(F)(F)C(F)(F)C(F)(F)F ?
Response line: f

Prompt line: Please let me know the test result on file for Nc1ccc(-c2ccc(F)cc2)cc1 .
Response line: f

Prompt line: Please state the recorded outcome for this compound: O=c1cc[nH]c(=S)[nH]1
Response line: f
